- testName: chemical genetic growth profiling, strain panel (AID 1159580);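 note: tested at 20 µM; growth read once vehicle control cultures reached saturation at 30 °C; 1 = growth at the plate median or of vehicle wells; lower values mean less growth of the strain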
- studyConditions: S. cerevisiae deletion strains, growth OD, locus YIR030C, strain dcg1
Among all 5,500 compounds or so, about 2,000 (36%) were called active. Roughly 18% stayed inconclusive and do not appear here. Cut-off read from the data, not from the text of the source: active = normalized growth mostly below about 0.91 (no sharp cut-off); inconclusive = no clear call, values can overlap the other calls; inactive = mostly above about 0.92. This is one part of the list.
Outcomes you can answer with include only these: active, inactive

Below, 5 compounds whose answers are already recorded.
{"columns": ["sampleSmiles", "labelClass"],
 "data": [
  ["O[N+]1=CC=CCC1=S.On1ccccc1=S.[Zn]", "active"],
  ["CNc1ccccc1C(=O)O", "inactive"],
  ["O=C(O)c1cccnc1Nc1cccc(C(F)(F)F)c1", "inactive"],
  ["COC(=O)Oc1ccccc1C(=O)O", "inactive"],
  ["C1CNCCN1", "inactive"]
]}

Status in this test for CC(C)(C)NC[C@@H](O)COc1nsnc1N1CCOCC1 ?
inactive

Status in this test for CCOP(=S)(OCC)SCn1c(=O)oc2cc(Cl)ccc21 ?
inactive

---

Provide the recorded normalized growth for the entries that follow.
- testName: chemical genetic growth profiling, strain panel (AID 1159580);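 note: tested at 20 µM; growth read once vehicle control cultures reached saturation at 30 °C; 1 = growth at the plate median or of vehicle wells; lower values mean less growth of the strain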
- studyConditions: S. cerevisiae deletion strains, growth OD, locus YDR162C, strain NBP2, hits give low values
Hit rate of the full screen: of about 5,500 compounds, about 2,000 (36%) were called active. Not shown: some 18% with an inconclusive outcome. The list shows a part of the results.
One number for each entry.

Would you be so kind as to report normalized growth for each listed record?
1. COc1cc2c(c(OC)c1OC)-c1ccc(O)c(=O)cc1[C@@H](NC(C)=O)CC2
2. CSCCC(NC=O)C(=O)NC(C)C(=O)O (stereo unspecified)
3. C=CCC1(C(C)CCC)C(=O)N=C(S)NC1=O (stereo unspecified)
4. O=C1O[C@H](C(O)CO)C(O)=C1O (stereo partly specified)

[0.382, 0.997, 1.01, 1.01]

Would you be so kind as to report normalized growth for each listed record?
1. C=C(C)[C@H]1CC=C(C(=O)O)CC1
2. OC[C@@H]1CCCN2CCCC[C@H]12
3. O=C(O)c1ccccc1Nc1cccc(C(F)(F)F)c1
4. CNc1ccccc1C(=O)O
5. CCC[C@H]1CC2=C(C[C@@H](CC)CC3=C1C(=O)OC3=O)C(=O)OC2=O

1: 0.989; 2: 1.01; 3: 0.852; 4: 1.05; 5: 1.01

Would you be so kind as to report normalized growth for each listed record?
1. COc1cc(C(=O)NCc2ccc(OCCN(C)C)cc2)cc(OC)c1OC
2. N[C@@H](Cc1ccc(O)c(O)c1)C(=O)O
3. CCN(CC)CCOc1ccc(/C(=C(\Cl)c2ccccc2)c2ccccc2)cc1
4. NC(=NCCC[C@H](N)C(=O)O)NC(CCC(=O)O)C(=O)O (stereo partly specified)
5. CCOP(=S)(OCC)SCn1c(=O)oc2cc(Cl)ccc21
6. CC1(C)CC2C1(O)CCC1(C)C=CC(O)C21CO (stereo unspecified)
7. CC(=O)O[C@H]1C[C@@H](OC(C)=O)C(C)(C)C2C[C@@H](OC(C)=O)[C@@]3(C)C4=CC(=O)O[C@@H](c5ccoc5)[C@]4(C)CCC3[C@]21C (stereo partly specified)
8. C/C=C/c1ccc2c(c1)OCO2

1.01
0.968
0.0484
0.977
0.987
1.03
1.03
1

Would you be so kind as to report normalized growth for each listed record?
1. CC/C(=C(\c1ccccc1)c1ccc(OCCN(C)C)cc1)c1ccccc1
2. O=C(O)CF
3. CC(=O)c1c(O)c(C)c(O)c2c1OC1=CC(=O)C(C(C)=O)C(=O)C12C (stereo unspecified)
4. C=C(CC)C(=O)c1ccc(OCC(=O)O)c(Cl)c1Cl

1: 0.046; 2: 1.03; 3: 1.03; 4: 0.966

All values here come from PubChem BioAssay AID1159580.
